B1: Probable E3 ubiquitin-protein ligase MID2, residues 191 to 235; numbered along this chain, Q9UJV3 (parent)
chain: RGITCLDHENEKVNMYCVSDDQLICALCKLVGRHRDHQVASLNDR

- Variants of: B1
- method: abundance fitness (aPCA) (normalised: wild type 0, dead -1); higher = more abundant; growth selection in yeast, the domain comes from the species named
- condition_notes: Homo sapiens
We'd kindly ask you to apply these abundance fitness classes: low interval: < -0.3; middle interval: ≥ -0.3 and < -0.03; high interval: ≥ -0.03

Textbook exercise: identify the category of the variant given here, C17V , according to its measured value. low interval

Textbook exercise: identify the category of the variant given here, Q22T , according to its measured value. middle interval

Textbook exercise: identify the category of the variant given here, E9N , according to its measured value. high interval

Textbook exercise: identify the category of the variant given here, T4V , according to its measured value. middle interval

Textbook exercise: identify the category of the variant given here, H34Q , according to its measured value. low interval

Textbook exercise: identify the category of the variant given here, H34W , according to its measured value. low interval

Textbook exercise: identify the category of the variant given here, C25W , according to its measured value. low interval

Textbook exercise: identify the category of the variant given here, V39Q , according to its measured value. middle interval

Textbook exercise: identify the category of the variant given here, G2E , according to its measured value. high interval

Textbook exercise: identify the category of the variant given here, A40F , according to its measured value. middle interval

Textbook exercise: identify the category of the variant given here, R45I , according to its measured value. middle interval

Textbook exercise: identify the category of the variant given here, E11K , according to its measured value. low interval

Textbook exercise: identify the category of the variant given here, V18D , according to its measured value. high interval

Textbook exercise: identify the category of the variant given here, H8L , according to its measured value. low interval

Textbook exercise: identify the category of the variant given here, D36I , according to its measured value. low interval

Textbook exercise: identify the category of the variant given here, I24Q , according to its measured value. high interval

Textbook exercise: identify the category of the variant given here, R33F , according to its measured value. low interval

Textbook exercise: identify the category of the variant given here, I24D , according to its measured value. middle interval

Textbook exercise: identify the category of the variant given here, M15T , according to its measured value. middle interval

Textbook exercise: identify the category of the variant given here, K29M , according to its measured value. high interval

Textbook exercise: identify the category of the variant given here, R1I , according to its measured value. middle interval

Textbook exercise: identify the category of the variant given here, L27I , according to its measured value. low interval

Textbook exercise: identify the category of the variant given here, G32T , according to its measured value. low interval

Textbook exercise: identify the category of the variant given here, S41F , according to its measured value. low interval

Textbook exercise: identify the category of the variant given here, K12D , according to its measured value. high interval

Textbook exercise: identify the category of the variant given here, E9M , according to its measured value. high interval

Textbook exercise: identify the category of the variant given here, A40P , according to its measured value. low interval

Textbook exercise: identify the category of the variant given here, K29S , according to its measured value. high interval

Textbook exercise: identify the category of the variant given here, L30N , according to its measured value. high interval

Textbook exercise: identify the category of the variant given here, T4H , according to its measured value. middle interval

Textbook exercise: identify the category of the variant given here, E9L , according to its measured value. high interval

Textbook exercise: identify the category of the variant given here, I24V , according to its measured value. high interval

Textbook exercise: identify the category of the variant given here, V31F , according to its measured value. middle interval

Textbook exercise: identify the category of the variant given here, D7C , according to its measured value. middle interval

Textbook exercise: identify the category of the variant given here, Q38C , according to its measured value. middle interval

Just for reference, the Human Domainome abundance scans (Beltran et al. 2025) is where these values come from.
